test system: XF498; assay: NCI tumour cell line growth inhibition, 48 h
The source made the active and inactive calls. Cut-off read from the data, not from the text of the source: active = GI50 up to about 1.1 µM and inactive = higher.

- molecule: "COc1ccc(/C(Cl)=C(\\C=N/O)c2ccc(OC)c(OC)c2)cc1OC"
  GI50: "> 100 µM (inactive)"
- molecule: "C[N+](C)=c1nc(N2CCOCC2)ss1"
  GI50: "> 100 µM (inactive)"
- molecule: "Nc1ccc([C@H]2C(=O)N[C@H]3CCC[C@H]32)cc1"
  GI50: "> 100 µM (inactive)"
- molecule: "C#CC[N+](CCO)(CCO)CCCCCCCCCCCCCCCCCC"
  GI50: "4.43 µM (inactive)"
- molecule: "Cc1ccc(S(=O)(=O)C2=c3nc4ccccc4cc3=C3C(=O)c4ccccc4C(=O)C32)cc1 (stereo not given)"
  GI50: "> 100 µM (inactive)"

---

system: SNB-19; experiment: NCI tumour cell line growth inhibition, 48 h
The source made the active and inactive calls. Rule as the data show it: active = GI50 up to about 1.1 µM and inactive = higher.
quantity.measured: GI50

- molecule: "CC(C)OC(=O)C1=C2c3ncccc3C(=O)N2[C@@H](Cl)[C@@H](Cl)[C@@H]1Cl"
  val: "> 100 µM (inactive)"
- molecule: "O=C1COc2cc(NC(=S)Nc3ccccc3)ccc2N1"
  val: "> 100 µM (inactive)"
- molecule: "N=C(N)N/N=C/c1nc2sccn2c1[N+](=O)[O-]"
  val: "35.2 µM (inactive)"
- molecule: "C=CCC1(CN(C)C)CC/C(=C\\c2ccc(OC)cc2)C1=O (stereo unspecified)"
  val: "> 100 µM (inactive)"
- molecule: "Nc1ccc2ncc(Nc3ccc(F)cc3)nc2c1"
  val: "> 100 µM (inactive)"
- molecule: "Cc1ccc(NC2=CC(=O)C(NO)c3ccccc32)cc1 (stereo unspecified)"
  val: "3.18 µM (inactive)"
- molecule: "CCC(C)[C@@H](NCc1ccccc1)[C@H](OCc1ccccc1)[C@@H]1COC(C)(C)O1 (stereo partly specified)"
  val: "17 µM (inactive)"
- molecule: "CC/C=C1\\N=C(c2ccc(Cl)cc2)OC1=O"
  val: "> 100 µM (inactive)"
- molecule: "O=C1/C(=C\\c2cccc(Oc3ccccc3)c2)SC(c2ccccc2)N1c1ccccc1 (stereo unspecified)"
  val: "58.1 µM (inactive)"
- molecule: "N#Cc1c(-c2ccccc2)c(/C=N/c2cccc(C(F)(F)F)c2)c(=O)n2c1[nH]c1ccccc12"
  val: "30.5 µM (inactive)"
- molecule: "O=P(c1ccccc1)(c1ccccc1)N1O[C@@H](c2ccccc2)C=C[C@H]1c1ccccc1"
  val: "14.8 µM (inactive)"
- molecule: "O=C(CC/C(CC(=O)c1ccc(Cl)cc1)=N/O)Nc1ccc(Cl)c(Cl)c1"
  val: "> 100 µM (inactive)"
- molecule: "NC(=O)CCC(NC(=O)Cc1ccccc1)C(=O)O.NC(CCC(=O)NC(=O)Cc1ccccc1)C(=O)O (stereo unspecified)"
  val: "> 8130 µM (inactive)"
- molecule: "COC(=O)C1=C(C)NC(C)=C(C(=O)OC)C1c1nc2sccn2c1[N+](=O)[O-]"
  val: "> 100 µM (inactive)"
- molecule: "CCOC(=O)C(C#N)C1=CC(=O)C(=O)c2ccc(O)cc21 (stereo unspecified)"
  val: "> 100 µM (inactive)"
- molecule: "CC1=C2CC[C@@]3(C)C(=CCC3O)C2(C)CCC1=O (stereo partly specified)"
  val: "> 100 µM (inactive)"
- molecule: "Cc1nc(NC(C)(CO)CO)nc(N/N=C/c2ccc(Cl)cc2)c1C(=O)Nc1ccc(Cl)cc1"
  val: "> 100 µM (inactive)"
- molecule: "O=C(NC(O)(C(F)(F)F)C(F)(F)F)c1ccccc1"
  val: "> 100 µM (inactive)"
- molecule: "CN(CCCNC(=O)c1cc(-c2ccccc2)nc2ccccc12)CCCNC(=O)c1cc(-c2ccccc2)nc2ccccc12"
  val: "5.97 µM (inactive)"
- molecule: "O=Cc1cn(S(=O)(=O)c2ccccc2)c2ccccc12"
  val: "54.2 µM (inactive)"
- molecule: "Nc1ncnc2c1nc(O)n2-c1ccccc1"
  val: "> 100 µM (inactive)"
- molecule: "CC1=C(C#N)C2C(=C(C)N1)C(N)=Nc1ccccc12 (stereo unspecified)"
  val: "37.1 µM (inactive)"
- molecule: "Cc1nnc2n(c1=O)CCN2C"
  val: "> 100 µM (inactive)"
- molecule: "CCOC(=O)C(C(=O)OCC)C(NC(=O)Nc1cc(C(F)(F)F)ccc1OC)(C(F)(F)F)C(F)(F)F"
  val: "39.9 µM (inactive)"
- molecule: "Cc1ccc(C)c2c1CCc1cc3ccccc3nc1-2"
  val: "> 100 µM (inactive)"
- molecule: "COc1ccc(-n2nnnc2C2(Nc3ccccc3)CCN(Cc3ccccc3)CC2)cc1"
  val: "12.3 µM (inactive)"

---

Documented GI50 across a set of compounds
test system: DU-145; experiment: NCI tumour cell line growth inhibition, 48 h
Calls of active or inactive are those of the source. No stated cut-off is given here; in the data, active = GI50 up to about 1.1 µM and inactive = higher.
quantity.measured: GI50

- compound: "CC(=O)OCCC[C@@H]1C(=C(C)C)CCC2[C@@]1(C)CC[C@@]1(C)C[C@](C)(CCC=C(C)C)CC[C@]21C (stereo partly specified)"
  target.or.test.system: "DU-145"
  val: "> 100 µM (inactive)"
- compound: "CC1=C(C#N)C2C(=C(C)N1)C(N)=Nc1ccccc12 (stereo unspecified)"
  target.or.test.system: "DU-145"
  val: "88.7 µM (inactive)"
- compound: "CC(=O)n1[nH]c(=O)n(-c2ccc(Cl)cc2)c1=O"
  target.or.test.system: "DU-145"
  val: "> 100 µM (inactive)"
- compound: "Cc1ccc(C2SC(=N)Nc3c2c(C)nn3C(=O)c2ccc(Cl)cc2)cc1 (stereo unspecified)"
  target.or.test.system: "DU-145"
  val: "> 10 µM (inactive)"
- compound: "C=CCC(SC)C1=C(C)C(=O)c2ccccc21 (stereo unspecified)"
  target.or.test.system: "DU-145"
  val: "> 10 µM (inactive)"
- compound: "C/C(=C\\CSCC(N)C(=O)O)CC/C=C(\\C)CNc1ccccc1 (stereo unspecified)"
  target.or.test.system: "DU-145"
  val: "> 100 µM (inactive)"

---

system: BT-549; assay: NCI tumour cell line growth inhibition, 48 h
The source made the active and inactive calls. No stated cut-off is given here; in the data, active = GI50 up to about 1.1 µM and inactive = higher.
quantity.measured: GI50

- compound: "Clc1ccc(CN2CCCN(Cc3ccc(Cl)cc3)C2c2cc3ccccc3c3ccccc23)cc1"
  quantity.measured: "GI50"
  val: "38.3 µM (inactive)"
- compound: "Cc1ncc(-c2nnnn2-c2ccccc2)c(C(=O)O)n1"
  quantity.measured: "GI50"
  val: "> 100 µM (inactive)"
- compound: "O=C1C2=Nc3ccccc3C(O)N2c2ccccc21 (centres undefined)"
  quantity.measured: "GI50"
  val: "28.4 µM (inactive)"
- compound: "O=c1cc(NNc2ccccc2F)[nH]c(=O)[nH]1"
  quantity.measured: "GI50"
  val: "17.5 µM (inactive)"
- compound: "C/C(=N\\NC(=S)NCCCNC(=S)N/N=C(\\C)c1ccccn1)c1ccccn1"
  quantity.measured: "GI50"
  val: "3.13 µM (inactive)"
- compound: "CC(C)OC(=O)C1(C(C)C)CCc2ccc(C(=O)CCC(=O)O)cc21 (centres undefined)"
  quantity.measured: "GI50"
  val: "> 100 µM (inactive)"
- compound: "CC(C)CNC1=NCC(C)S1 (centres undefined)"
  quantity.measured: "GI50"
  val: "> 100 µM (inactive)"
- compound: "O=S1(=O)c2cnccc2N=C(NCc2cccc3ccccc23)N1c1ccccc1"
  quantity.measured: "GI50"
  val: "> 100 µM (inactive)"
- compound: "N=C1CCCC1C(=S)SCCC(N)=O (centres undefined)"
  quantity.measured: "GI50"
  val: "> 100 µM (inactive)"
- compound: "COc1cc(O)c2c(=O)c3c(C)cccc3n(C)c2c1"
  quantity.measured: "GI50"
  val: "> 10 µM (inactive)"
- compound: "CN(C)/C=N/c1cc(=O)n(C)c(=O)n1C"
  quantity.measured: "GI50"
  val: "> 100 µM (inactive)"
- compound: "O=C(Nc1ccccc1)c1cc2ccccc2c(/N=N/c2ccc([N+](=O)[O-])cc2)c1O"
  quantity.measured: "GI50"
  val: "44.3 µM (inactive)"
- compound: "C/C(=C\\CSCC(N)C(=O)O)CC/C=C(\\C)CNc1ccccc1 (centres undefined)"
  quantity.measured: "GI50"
  val: "64.1 µM (inactive)"
- compound: "COc1cc(C2SCC(=O)N2c2ccccc2Cl)cc(OC)c1OC (centres undefined)"
  quantity.measured: "GI50"
  val: "54 µM (inactive)"
- compound: "O=c1[nH]c(=O)n([C@@H]2O[C@H](CO)[C@@H](O)[C@@H]2F)cc1I"
  quantity.measured: "GI50"
  val: "39.2 µM (inactive)"
- compound: "COC(=O)[C@@]12CN(C)[C@@H](C(C)(C)C)N1C(=O)OC2c1ccccc1 (some centres undefined)"
  quantity.measured: "GI50"
  val: "> 100 µM (inactive)"
- compound: "COc1ccc(N2C(=O)c3cccnc3S2(=O)=O)cc1"
  quantity.measured: "GI50"
  val: "> 100 µM (inactive)"
- compound: "CC(=O)O[C@H]1CC2C(C3CCC(C(C)CCC(=O)O)[C@]31C)[C@H](OC(C)=O)C[C@@H]1CC3(CC[C@]21C)OOC1(CC[C@]2(C)C4C[C@H](OC(C)=O)[C@]5(C)C(C(C)CCC(=O)O)CCC5C4[C@H](OC(C)=O)C[C@@H]2C1)OO3 (some centres undefined)"
  quantity.measured: "GI50"
  val: "1.56 µM (inactive)"
- compound: "O=C1c2ccccc2C(C2c3ccccc3C(=O)c3cc(Br)ccc32)c2ccc(Br)cc21 (centres undefined)"
  quantity.measured: "GI50"
  val: "> 100 µM (inactive)"
- compound: "CCOc1cc(C(c2c(O)c3ccccc3oc2=O)c2c(O)c3ccccc3oc2=O)ccc1OC"
  quantity.measured: "GI50"
  val: "20.7 µM (inactive)"
- compound: "Nc1cc2c(nnn2C2OC(COCc3ccccc3)C(OCc3ccccc3)C2OCc2ccccc2)c(=O)[nH]1 (centres undefined)"
  quantity.measured: "GI50"
  val: "20 µM (inactive)"
- compound: "c1ccc(C[N+]23CN4CN(CN(C4)C2)C3)cc1"
  quantity.measured: "GI50"
  val: "48.2 µM (inactive)"
- compound: "CN(CCCNC(=O)c1cc(-c2ccccc2)nc2ccccc12)CCCNC(=O)c1cc(-c2ccccc2)nc2ccccc12"
  quantity.measured: "GI50"
  val: "12.9 µM (inactive)"
- compound: "CN(NC(=O)c1cccs1)C1=NCCN1"
  quantity.measured: "GI50"
  val: "> 100 µM (inactive)"
- compound: "Cc1ccc(NC(=O)c2cccc(OP(=O)(Nc3ccc(C)cc3)Nc3ccc(C)cc3)c2)cc1"
  quantity.measured: "GI50"
  val: "22.2 µM (inactive)"
- compound: "COc1cccc2[nH]c(-c3ccccn3)nc12"
  quantity.measured: "GI50"
  val: "> 100 µM (inactive)"
- compound: "COc1cc(/C=C/C(=O)CC(=O)/C=C/c2cc(OC)c(O)c(OC)c2)cc(OC)c1O"
  quantity.measured: "GI50"
  val: "8.95 µM (inactive)"
- compound: "O=C(O)CN1CCN(CC(=O)O)CCN(CC(=O)O)CC1"
  quantity.measured: "GI50"
  val: "> 100 µM (inactive)"
- compound: "CC1(C)OC(=O)N(c2ccccc2)C12C=Cc1cc([N+](=O)[O-])ccc1O2 (centres undefined)"
  quantity.measured: "GI50"
  val: "51.6 µM (inactive)"
- compound: "Cc1c(C(=O)N2CCN(c3ccc([N+](=O)[O-])cc3)CC2)[n+]([O-])c2cc(Cl)c(Cl)cc2[n+]1[O-]"
  quantity.measured: "GI50"
  val: "16.9 µM (inactive)"
- compound: "COc1ccc(-c2oc3c(OC)c(OC)c(OC)c(OC)c3c(=O)c2OC)cc1OC"
  quantity.measured: "GI50"
  val: "50.7 µM (inactive)"
- compound: "N=C(N)SCc1cccc(-c2nc3ccccc3c(=O)o2)c1"
  quantity.measured: "GI50"
  val: "> 100 µM (inactive)"
- compound: "Cc1c2n(c3ccccc13)S(=O)(=O)c1ccccc1-2"
  quantity.measured: "GI50"
  val: "39.8 µM (inactive)"
- compound: "O=P(c1ccccc1)(c1ccccc1)N1O[C@@H](c2ccccc2)C=C[C@H]1c1ccccc1"
  quantity.measured: "GI50"
  val: "17.5 µM (inactive)"
- compound: "CCN(CC)CCCn1c(=O)c2cccnc2n2c3c(=O)n(C)c(=O)n(C)c3nc12"
  quantity.measured: "GI50"
  val: "> 100 µM (inactive)"
- compound: "Cn1c2ccccc2n2c3nc4ccccc4nc3c(C#N)c12"
  quantity.measured: "GI50"
  val: "> 100 µM (inactive)"
- compound: "CNC(=O)C1OC(n2cnc3c(NCc4cccc(I)c4)nc(Cl)nc32)C(O)C1O (centres undefined)"
  quantity.measured: "GI50"
  val: "14.1 µM (inactive)"
- compound: "C=C(CN(C)C)C(=O)c1ccc(OC2OC(COC(C)=O)C(OC(C)=O)C(OC(C)=O)C2OC(C)=O)cc1 (centres undefined)"
  quantity.measured: "GI50"
  val: "2.61 µM (inactive)"
- compound: "COC(=O)[C@H](Cc1ccccc1)NC(=O)c1ccc(CNC(=O)/C=C/c2ccc(-c3ccccc3)cc2)cc1"
  quantity.measured: "GI50"
  val: "24.9 µM (inactive)"
